system: Haemophilus influenzae; experiment: Antimicrobial activity against Haemophilus influenzae clinical isolates assessed as susceptible isolates by broth dilution method; assay type: functional
Measured Activity accompanies every entry in the list below.
State the answer as a number, implicitly in %.

Known Activity results, listed for orientation:
SMILES STR	READING UNIT	MEASURED NUMBER
C[C@H]1COc2c(N3CCN(C)CC3)c(F)cc3c(=O)c(C(=O)O)cn1c23.C[C@H]1COc2c(N3CCN(C)CC3)c(F)cc3c(=O)c(C(=O)O)cn1c23.O	%	99.9
CC[C@H]1OC(=O)[C@H](C)[C@@H](O[C@H]2C[C@@](C)(OC)[C@@H](O)[C@H](C)O2)[C@H](C)[C@@H](O[C@@H]2O[C@H](C)C[C@H](N(C)C)[C@H]2O)[C@](C)(OC)C[C@@H](C)C(=O)[C@H](C)[C@@H](O)[C@]1(C)O	%	99.3

Prompt: Field: Activity (Haemophilus influenzae). Entry: `CC1(C)S[C@@H]2[C@H](NC(=O)[C@H](N)c3ccccc3)C(=O)N2[C@H]1C(=O)O`
Response: 83.9

----------
system: Haemophilus influenzae; experiment: Antimicrobial activity against Haemophilus influenzae clinical isolates assessed as susceptible isolates by broth dilution method; assay type: functional
Measured Activity accompanies every entry in the list below.
State the answer as a number, implicitly in %.

COMPOUND	Activity (%)
CO/N=C(\C(=O)N[C@@H]1C(=O)N2C(C(=O)O)=C(COC(C)=O)CS[C@H]12)c1csc(N)n1 [CEFOTAXIME]	99.9

Prompt: Any idea what Activity was measured for N[C@@H](C(=O)N[C@@H]1C(=O)N2C(C(=O)O)=C(Cl)CS[C@H]12)c1ccccc1 [CEFACLOR ANHYDROUS] ?
Response: 97.8

Prompt: Any idea what Activity was measured for CC[C@H]1OC(=O)[C@H](C)[C@@H](O[C@H]2C[C@@](C)(OC)[C@@H](O)[C@H](C)O2)[C@H](C)[C@@H](O[C@@H]2O[C@H](C)C[C@H](N(C)C)[C@H]2O)[C@](C)(O)C[C@@H](C)CN(C)[C@H](C)[C@@H](O)[C@]1(C)O [AZITHROMYCIN] ?
Response: 100

----------
Measured MIC50 accompanies every entry in the list below.
test system: Haemophilus influenzae; test: Antimicrobial activity against Haemophilus influenzae clinical isolates by broth dilution method; format: functional
State the answer as a number, implicitly in µg/mL.

Known MIC50 results, listed for orientation:
COMPOUND	READING UNIT	MEASURED NUMBER
N[C@@H](C(=O)N[C@@H]1C(=O)N2C(C(=O)O)=C(Cl)CS[C@H]12)c1ccccc1 [CEFACLOR ANHYDROUS]	µg/mL	1
CC[C@H]1OC(=O)[C@H](C)[C@@H](O[C@H]2C[C@@](C)(OC)[C@@H](O)[C@H](C)O2)[C@H](C)[C@@H](O[C@@H]2O[C@H](C)C[C@H](N(C)C)[C@H]2O)[C@](C)(O)C[C@@H](C)C(=O)[C@H](C)[C@@H](O)[C@]1(C)O	µg/mL	1
CC[C@H]1OC(=O)[C@H](C)[C@@H](O[C@H]2C[C@@](C)(OC)[C@@H](O)[C@H](C)O2)[C@H](C)[C@@H](O[C@@H]2O[C@H](C)C[C@H](N(C)C)[C@H]2O)[C@](C)(O)C[C@@H](C)CN(C)[C@H](C)[C@@H](O)[C@]1(C)O	µg/mL	0.25
CC[C@H]1OC(=O)[C@H](C)[C@@H](O[C@H]2C[C@@](C)(OC)[C@@H](O)[C@H](C)O2)[C@H](C)[C@@H](O[C@@H]2O[C@H](C)C[C@H](N(C)C)[C@H]2O)[C@](C)(OC)C[C@@H](C)C(=O)[C@H](C)[C@@H](O)[C@]1(C)O	µg/mL	2

Now examine the next entry.
Prompt: Any idea what MIC50 was measured for `CC1(C)S[C@@H]2[C@H](NC(=O)[C@H](N)c3ccccc3)C(=O)N2[C@H]1C(=O)O` ?
Response: 0.12

----------
test system: Streptococcus pneumoniae; experiment: Antimicrobial activity against Streptococcus pneumoniae clinical isolates by broth dilution method; assay type: functional
QUANTITY KIND: MIC50

Known MIC50 results, listed for orientation:
COMPOUND	RESULT
CC[C@H]1OC(=O)[C@H](C)[C@@H](O[C@H]2C[C@@](C)(OC)[C@@H](O)[C@H](C)O2)[C@H](C)[C@@H](O[C@@H]2O[C@H](C)C[C@H](N(C)C)[C@H]2O)[C@](C)(OC)C[C@@H](C)C(=O)[C@H](C)[C@@H](O)[C@]1(C)O	≤ 0.015 µg/mL
CC[C@H]1OC(=O)[C@H](C)[C@@H](O[C@H]2C[C@@](C)(OC)[C@@H](O)[C@H](C)O2)[C@H](C)[C@@H](O[C@@H]2O[C@H](C)C[C@H](N(C)C)[C@H]2O)[C@](C)(O)C[C@@H](C)CN(C)[C@H](C)[C@@H](O)[C@]1(C)O	≤ 0.015 µg/mL
CC[C@H]1OC(=O)[C@H](C)[C@@H](O[C@H]2C[C@@](C)(OC)[C@@H](O)[C@H](C)O2)[C@H](C)[C@@H](O[C@@H]2O[C@H](C)C[C@H](N(C)C)[C@H]2O)[C@](C)(O)C[C@@H](C)C(=O)[C@H](C)[C@@H](O)[C@]1(C)O	≤ 0.015 µg/mL
CC1(C)S[C@@H]2[C@H](NC(=O)[C@H](N)c3ccccc3)C(=O)N2[C@H]1C(=O)O	≤ 0.015 µg/mL
N[C@@H](C(=O)N[C@@H]1C(=O)N2C(C(=O)O)=C(Cl)CS[C@H]12)c1ccccc1 [CEFACLOR ANHYDROUS]	0.125 µg/mL
CO/N=C(\C(=O)N[C@@H]1C(=O)N2C(C(=O)O)=C(COC(C)=O)CS[C@H]12)c1csc(N)n1	≤ 0.015 µg/mL

Now examine the next entry.
Prompt: Any idea what MIC50 was measured for `C[C@H]1COc2c(N3CCN(C)CC3)c(F)cc3c(=O)c(C(=O)O)cn1c23.C[C@H]1COc2c(N3CCN(C)CC3)c(F)cc3c(=O)c(C(=O)O)cn1c23.O` ?
Response: 0.125 µg/mL

----------
Measured MIC90 accompanies every entry in the list below.
test system: Streptococcus pneumoniae; experiment: Antimicrobial activity against Streptococcus pneumoniae clinical isolates by broth dilution method; type: functional
State the answer as a number, implicitly in µg/mL.

COMPOUND	TARGET ENTITY	MIC90, µg/mL
CC1(C)S[C@@H]2[C@H](NC(=O)[C@H](N)c3ccccc3)C(=O)N2[C@H]1C(=O)O	Streptococcus pneumoniae	2

Now examine the next entry.
Prompt: Any idea what MIC90 was measured for N[C@@H](C(=O)N[C@@H]1C(=O)N2C(C(=O)O)=C(Cl)CS[C@H]12)c1ccccc1 [CEFACLOR ANHYDROUS] ?
Response: 16

----------
tested on: Streptococcus pneumoniae; test: Antimicrobial activity against Streptococcus pneumoniae clinical isolates by broth dilution method; type: functional
Measured MIC90 accompanies every entry in the list below.
State the answer as a number, implicitly in µg/mL.

SMILES STR	READING UNIT	MIC90
CO/N=C(\C(=O)N[C@@H]1C(=O)N2C(C(=O)O)=C(COC(C)=O)CS[C@H]12)c1csc(N)n1	µg/mL	0.25

Now examine the next entry.
Prompt: Any idea what MIC90 was measured for `C[C@H]1COc2c(N3CCN(C)CC3)c(F)cc3c(=O)c(C(=O)O)cn1c23.C[C@H]1COc2c(N3CCN(C)CC3)c(F)cc3c(=O)c(C(=O)O)cn1c23.O` ?
Response: 0.25
